Task for the reader: assign each of the following molecules its reported Corn plant response rating (0 to 100 scale).
System: corn (Zea mays)
assay-summary: Test C postemergence, visual plant response rating
Format: in vivo
run-parameters: Postemergence, 31 g ai/ha
Answers are plain numbers.

These solved cases illustrate the format of a correct answer.
> print(dat)
                                  structure  endpoint.value
1  CO/N=C(/c1ccc(F)c(Cl)c1)c1c(O)c(C)nn(C)c1=O               0
2  CON=C(c1cc(F)cc(F)c1F)c1c(O)c(C)nn(C)c1=O               0
3  CCO/N=C(/c1c(O)c(Cl)nn(C)c1=O)c1cc(Br)cc2ccccc12              20
4  CO/N=C(/c1c(O)c(Cl)nn(C)c1=O)c1ccc(F)c2ccccc12              30
5  CO/N=C(/c1c(O)c(C)nn(C)c1=O)c1cccc2cc(SC)ccc12               0

Please give Corn plant response rating (0 to 100 scale) for each item listed below.
1. C#CCO/N=C(\c1ccc(F)c(Cl)c1)c1c(O)c(C)nn(C)c1=O
2. CCON=C(c1cc(Cl)cc(Br)c1)c1c(O)c(C)nn(C)c1=O
3. CCO/N=C(/c1c(O)c(Cl)nn(C)c1=O)c1ccc(F)c2ccccc12
4. CC(C)O/N=C(/c1c(O)c(Cl)nn(C)c1=O)c1ccc(F)c2ccccc12

Given back:
0
0
30
10
